Test system: 857933-349-R-J2-PDC complex spheroid viability;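 note: spheroids exposed to compounds for seven days before readout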
Assay: Anticancer human tumor 857933-349-R-J2-PDC patient-derived colon adenocarcinoma cell line growth inhibition [POLQ]
Details: second compound 0.0316 µM; first compound 0.1 µM; active compounds read low
Protocol: Multicellular complex tumor spheroid response to Polymerase (POL) inhibitors (novobiocin, ART-558, RP6685) in combination with a variety of drugs and investigational agents in selected tumor cell lines The POL inhibitors (novobiocin, ART-558, and RP6685) were evaluated both individually and in combination with standard of care and investigational anticancer small molecules within a complex spheroid model of solid tumors. . […]
Listed here: items and their measured viability, T/C.

| compound | viability, T/C |
| --- | --- |
| COc1cccc2c1C(=O)c1c(O)c3c(c(O)c1C2=O)CC(O)(C(=O)CO)CC3OC1CC(N)C(O)C(C)O1 (stereo not given) + COC1C(OC(N)=O)C(O)C(Oc2ccc3c(O)c(NC(=O)c4ccc(O)c(CC=C(C)C)c4)c(=O)oc3c2C)OC1(C)C | 80.2% |
| O=C(Nc1ccc(O)c(NS(=O)(=O)c2ccc(F)cc2)c1)c1ccc(-c2ccccc2)cc1 + Nc1ccc(C#CCN(C(=O)Cc2ncc(C(F)(F)F)cc2C(F)(F)F)c2ccc(F)cc2)nn1 | 108% |
| CCc1c2c(nc3ccc(O)cc13)-c1cc3c(c(=O)n1C2)COC(=O)[C@]3(O)CC + COC1C(OC(N)=O)C(O)C(Oc2ccc3c(O)c(NC(=O)c4ccc(O)c(CC=C(C)C)c4)c(=O)oc3c2C)OC1(C)C | 25.3% |
| C=CC(=O)N1CCN(c2nc(=O)n(-c3c(C)ccnc3C(C)C)c3nc(-c4c(O)cccc4F)c(F)cc23)C(C)C1 (stereo not given) + COC1C(OC(N)=O)C(O)C(Oc2ccc3c(O)c(NC(=O)c4ccc(O)c(CC=C(C)C)c4)c(=O)oc3c2C)OC1(C)C | 104% |
| Cn1ncnc1[C@H]1c2n[nH]c(=O)c3cc(F)cc(c23)N[C@@H]1c1ccc(F)cc1 + COC1C(OC(N)=O)C(O)C(Oc2ccc3c(O)c(NC(=O)c4ccc(O)c(CC=C(C)C)c4)c(=O)oc3c2C)OC1(C)C | 100% |
| COc1ccc([C@@H](O)c2cc(-c3ncnc4cc(N5CCOCC5)ccc34)c(F)cc2Cl)nn1 + COC1C(OC(N)=O)C(O)C(Oc2ccc3c(O)c(NC(=O)c4ccc(O)c(CC=C(C)C)c4)c(=O)oc3c2C)OC1(C)C | 102% |
| O=c1[nH]cc(F)c(=O)[nH]1 + COC1C(OC(N)=O)C(O)C(Oc2ccc3c(O)c(NC(=O)c4ccc(O)c(CC=C(C)C)c4)c(=O)oc3c2C)OC1(C)C | 110% |
| CCCS(=O)(=O)Nc1ccc(F)c(C(=O)c2c[nH]c3ncc(-c4ccc(Cl)cc4)cc23)c1F + Cc1cccc(N(C)C(=O)C2C(O)CCN2c2nc(C)cc(C(F)(F)F)c2C#N)c1 | 104% |
| CCc1cc2c(N3CCc4c(cc(Cn5ccnc5)cc4-c4cn(C)nc4C(F)(F)F)C3=O)ccnc2c(OC)n1 + COC1C(OC(N)=O)C(O)C(Oc2ccc3c(O)c(NC(=O)c4ccc(O)c(CC=C(C)C)c4)c(=O)oc3c2C)OC1(C)C | 93.4% |
| CC1COCCN1c1cc(C2(O)CC3CCC(C2)O3)c2cnn(-c3ccn[nH]3)c2n1 (stereo not given) + Cc1cccc(N(C)C(=O)C2C(O)CCN2c2nc(C)cc(C(F)(F)F)c2C#N)c1 | 56.1% |
| CCc1cc2c(N3CCc4c(cc(Cn5ccnc5)cc4-c4cn(C)nc4C(F)(F)F)C3=O)cc(C)nc2c(OC)n1 + Cc1cccc(N(C)C(=O)C2C(O)CCN2c2nc(C)cc(C(F)(F)F)c2C#N)c1 | 93.2% |
| COc1cccc(OCCCN)c1-c1cc(Nc2cnc(C#N)cn2)n[nH]1 + Cc1cccc(N(C)C(=O)C2C(O)CCN2c2nc(C)cc(C(F)(F)F)c2C#N)c1 | 86.9% |
| CCCS(=O)(=O)Nc1ccc(F)c(C(=O)c2c[nH]c3ncc(-c4ccc(Cl)cc4)cc23)c1F + COC1C(OC(N)=O)C(O)C(Oc2ccc3c(O)c(NC(=O)c4ccc(O)c(CC=C(C)C)c4)c(=O)oc3c2C)OC1(C)C | 113% |
| CC1COCCN1c1cc(C2(O)CC3CCC(C2)O3)c2cnn(-c3ccn[nH]3)c2n1 (stereo not given) + Nc1ccc(C#CCN(C(=O)Cc2ncc(C(F)(F)F)cc2C(F)(F)F)c2ccc(F)cc2)nn1 | 76.5% |
| O=C(c1cc(Cc2n[nH]c(=O)c3ccccc23)ccc1F)N1CCN(C(=O)C2CC2)CC1 + Cc1cccc(N(C)C(=O)C2C(O)CCN2c2nc(C)cc(C(F)(F)F)c2C#N)c1 | 99.4% |
| CC1COCCN1c1cc(C2(S(C)(=N)=O)CC2)nc(-c2ccnc3[nH]ccc23)n1 (stereo not given) + Cc1cccc(N(C)C(=O)C2C(O)CCN2c2nc(C)cc(C(F)(F)F)c2C#N)c1 | 105% |
| CC1COCCN1c1cc(C2(S(C)(=N)=O)CC2)nc(-c2ccnc3[nH]ccc23)n1 (stereo not given) + COC1C(OC(N)=O)C(O)C(Oc2ccc3c(O)c(NC(=O)c4ccc(O)c(CC=C(C)C)c4)c(=O)oc3c2C)OC1(C)C | 107% |
| CCc1c2c(nc3ccc(O)cc13)-c1cc3c(c(=O)n1C2)COC(=O)[C@]3(O)CC + Nc1ccc(C#CCN(C(=O)Cc2ncc(C(F)(F)F)cc2C(F)(F)F)c2ccc(F)cc2)nn1 | 18.6% |
| Nc1ccn(C2OC(CO)C(O)C2(F)F)c(=O)n1 (stereo not given) + COC1C(OC(N)=O)C(O)C(Oc2ccc3c(O)c(NC(=O)c4ccc(O)c(CC=C(C)C)c4)c(=O)oc3c2C)OC1(C)C | 63.7% |
| COc1ccc([C@@H](O)c2cc(-c3ncnc4cc(N5CCOCC5)ccc34)c(F)cc2Cl)nn1 + Nc1ccc(C#CCN(C(=O)Cc2ncc(C(F)(F)F)cc2C(F)(F)F)c2ccc(F)cc2)nn1 | 104% |
